# targetOfAssay: T1, human PD-1 (human, UniProt Q15116 25-167)
# T1 construct: The immunogen was PD1/Fc (Leu25-Gln167 fused to human IgG1 Pro100-Lys330); also called huPD-1; hPD-1
# T1 sequence (Q15116 25-167 limits assumed): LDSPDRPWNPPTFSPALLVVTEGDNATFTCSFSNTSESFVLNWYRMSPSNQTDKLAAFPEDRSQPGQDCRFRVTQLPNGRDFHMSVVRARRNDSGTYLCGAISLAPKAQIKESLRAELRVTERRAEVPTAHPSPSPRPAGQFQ
# assayExplanation: SPR, multiple-cycle, crude Fab from E. coli; antigen form not stated
Here the recorded koff is given for each entry.
# output: bare number, implied unit s⁻¹

// worked examples, koff included
Fab 10 (Fab, V domains shown, Crude Fab from E. coli; also called PD1-BM VL-V78L) VH: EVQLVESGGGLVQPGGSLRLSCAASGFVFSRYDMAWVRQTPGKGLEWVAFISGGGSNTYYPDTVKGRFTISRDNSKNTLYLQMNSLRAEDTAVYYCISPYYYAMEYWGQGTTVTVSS VL: DIQMTQSPSSISTSVGDRVTITCKASQDVDTAVAWYQQKPGKSPKLLIHWASTRHTGVPSRFSGSGSGTDFTLTLSSLQPEDLADYFCQQYSTFPWTFGGGTKLEIK: 9.1e-05
Fab 9 (Fab, V domains shown, Crude Fab from E. coli; also called PD1-BM VL-L75I) VH: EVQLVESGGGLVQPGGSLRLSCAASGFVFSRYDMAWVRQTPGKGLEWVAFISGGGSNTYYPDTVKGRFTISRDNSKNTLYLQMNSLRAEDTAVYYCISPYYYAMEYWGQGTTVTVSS VL: DIQMTQSPSSISTSVGDRVTITCKASQDVDTAVAWYQQKPGKSPKLLIHWASTRHTGVPSRFSGSGSGTDFTLTISSVQPEDLADYFCQQYSTFPWTFGGGTKLEIK: 8e-05
Fab 1 (Fab, V domains shown, Crude Fab from E. coli; also called PD1-BM VH-T40A) VH: EVQLVESGGGLVQPGGSLRLSCAASGFVFSRYDMAWVRQAPGKGLEWVAFISGGGSNTYYPDTVKGRFTISRDNSKNTLYLQMNSLRAEDTAVYYCISPYYYAMEYWGQGTTVTVSS VL: DIQMTQSPSSISTSVGDRVTITCKASQDVDTAVAWYQQKPGKSPKLLIHWASTRHTGVPSRFSGSGSGTDFTLTLSSVQPEDLADYFCQQYSTFPWTFGGGTKLEIK: 9.8e-05
Fab 12 (Fab, V domains shown, Crude Fab from E. coli; also called PD1-BM VL-D85T) VH: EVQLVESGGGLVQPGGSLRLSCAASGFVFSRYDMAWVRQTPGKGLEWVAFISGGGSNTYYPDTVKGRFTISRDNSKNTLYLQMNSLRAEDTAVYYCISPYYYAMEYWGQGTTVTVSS VL: DIQMTQSPSSISTSVGDRVTITCKASQDVDTAVAWYQQKPGKSPKLLIHWASTRHTGVPSRFSGSGSGTDFTLTLSSVQPEDLATYFCQQYSTFPWTFGGGTKLEIK: 9.4e-05

# ---- query binder ----
Please give the measured koff for this binder: Fab 7 (Fab, V domains shown, Crude Fab from E. coli; also called PD1-BM VL-S43A) VH: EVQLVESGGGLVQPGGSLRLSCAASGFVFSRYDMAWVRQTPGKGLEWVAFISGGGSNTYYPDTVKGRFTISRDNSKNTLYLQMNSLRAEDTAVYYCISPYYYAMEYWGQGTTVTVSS VL: DIQMTQSPSSISTSVGDRVTITCKASQDVDTAVAWYQQKPGKAPKLLIHWASTRHTGVPSRFSGSGSGTDFTLTLSSVQPEDLADYFCQQYSTFPWTFGGGTKLEIK
0.00016

The reported numbers originate from patent US20190330346A1.
